System Name: Human PARP-1 enzyme (Homo sapiens, UniProt P09874)
Construct: purchased Trevigen
Sequence (P09874 whole entry): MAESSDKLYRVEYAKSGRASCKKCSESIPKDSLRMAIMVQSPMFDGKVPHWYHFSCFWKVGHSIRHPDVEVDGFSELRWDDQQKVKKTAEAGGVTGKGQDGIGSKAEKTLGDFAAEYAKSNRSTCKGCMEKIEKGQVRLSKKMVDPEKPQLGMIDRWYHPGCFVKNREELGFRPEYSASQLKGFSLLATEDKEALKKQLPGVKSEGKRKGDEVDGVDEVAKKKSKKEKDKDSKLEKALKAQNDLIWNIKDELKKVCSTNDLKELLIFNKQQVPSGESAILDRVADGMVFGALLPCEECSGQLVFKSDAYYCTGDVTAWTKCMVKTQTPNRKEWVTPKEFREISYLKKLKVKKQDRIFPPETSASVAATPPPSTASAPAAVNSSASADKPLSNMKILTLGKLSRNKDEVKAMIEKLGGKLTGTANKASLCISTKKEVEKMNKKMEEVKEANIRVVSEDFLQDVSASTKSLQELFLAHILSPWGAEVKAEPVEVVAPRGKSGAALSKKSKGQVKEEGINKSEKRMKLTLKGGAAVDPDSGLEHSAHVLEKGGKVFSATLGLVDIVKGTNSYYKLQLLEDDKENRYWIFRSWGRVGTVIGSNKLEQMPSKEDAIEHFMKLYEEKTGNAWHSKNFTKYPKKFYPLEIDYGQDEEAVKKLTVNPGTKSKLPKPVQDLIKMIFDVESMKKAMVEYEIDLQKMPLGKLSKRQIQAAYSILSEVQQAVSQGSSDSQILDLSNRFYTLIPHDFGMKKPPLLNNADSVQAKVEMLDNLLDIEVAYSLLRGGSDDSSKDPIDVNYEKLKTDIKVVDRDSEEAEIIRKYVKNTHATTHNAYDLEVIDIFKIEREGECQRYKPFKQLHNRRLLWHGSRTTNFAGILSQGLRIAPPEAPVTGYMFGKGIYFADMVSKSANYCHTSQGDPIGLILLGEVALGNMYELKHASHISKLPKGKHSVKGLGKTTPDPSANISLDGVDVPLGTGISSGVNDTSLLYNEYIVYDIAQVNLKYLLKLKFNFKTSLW
Assay Info: In vitro Scintillation Proximity Assay (SPA) for PARP-1 inhibitory activity
Format: biochemical
Experimental Parameters: read-out: in vitro SPA assay PARP-1 pIC50 (converted)
Readout Kind: log10 IC50 (log10 of the value in nM)

- Compound: "CCc1cc2ccc(C(C)(C#N)Cc3cccc(C#C[Si](C)(C)C)c3)cc2[nH]c1=O (stereo not shown)"
  Readout Kind: "log10 IC50"
  Value Observed: 2.60
- Compound: "CCc1cc2ccc(C(C)(C#N)Cc3cc(Br)cc(N(C)C)c3)cc2[nH]c1=O (stereo not shown)"
  Readout Kind: "log10 IC50"
  Value Observed: 1.90
- Compound: "CCc1cc2ccc(C(C)(C#N)Cc3cc(C(F)(F)F)ccc3F)cc2[nH]c1=O (stereo not shown)"
  Readout Kind: "log10 IC50"
  Value Observed: 1.90
- Compound: "Cc1cc2ccc(C(C)(C#N)Cc3cccc(Oc4ccccc4)n3)cc2[nH]c1=O (stereo not shown)"
  Readout Kind: "log10 IC50"
  Value Observed: 2.00
- Compound: "CCc1cc2ccc(C(C)(C#N)Cc3nc4ccccc4n3C)cc2[nH]c1=O (stereo not shown)"
  Readout Kind: "log10 IC50"
  Value Observed: 2.30
- Compound: "Cc1cc2ccc(C(C)(C#N)C3CCc4c(Br)cccc43)cc2[nH]c1=O (stereo not shown)"
  Readout Kind: "log10 IC50"
  Value Observed: 1.90
- Compound: "CCc1cc2ccc(C(C)(C#N)Cc3cc(OC)ccn3)cc2[nH]c1=O (stereo not shown)"
  Readout Kind: "log10 IC50"
  Value Observed: 2.00
- Compound: "CCc1cc2ccc(C(C#N)(CC)Cc3cccc(F)c3)cc2[nH]c1=O (stereo not shown)"
  Readout Kind: "log10 IC50"
  Value Observed: 1.60
- Compound: "CCc1cc2ccc(C(C)(C#N)Cc3cc(OC)nc(OC)n3)cc2[nH]c1=O (stereo not shown)"
  Readout Kind: "log10 IC50"
  Value Observed: 1.70
- Compound: "CCc1cc2ccc(C(C)(C#N)Cc3cccc(C#N)c3)cc2[nH]c1=O (stereo not shown)"
  Readout Kind: "log10 IC50"
  Value Observed: 2.10
- Compound: "CCc1cc2ccc(C(C)(C#N)Cc3cccc(NC(=O)N4CCOCC4)c3)cc2[nH]c1=O (stereo not shown)"
  Readout Kind: "log10 IC50"
  Value Observed: 2.20
- Compound: "CCc1cc2ccc(C(C)(C#N)CCOc3ccccc3Cl)cc2[nH]c1=O (stereo not shown)"
  Readout Kind: "log10 IC50"
  Value Observed: 2.60
- Compound: "C=C(C)c1cccc(CC(C)(C#N)c2ccc3cc(CC)c(=O)[nH]c3c2)c1 (stereo not shown)"
  Readout Kind: "log10 IC50"
  Value Observed: 1.50
- Compound: "CCc1cc2ccc(C(C)(C#N)CCOc3ccc4oc(C)c(C)c4c3)cc2[nH]c1=O (stereo not shown)"
  Readout Kind: "log10 IC50"
  Value Observed: 3.00
- Compound: "CCc1cnc(OCCC(C)(C#N)c2ccc3cc(CC)c(=O)[nH]c3c2)nc1 (stereo not shown)"
  Readout Kind: "log10 IC50"
  Value Observed: 1.70
- Compound: "CCc1cc2ccc(C(C)(C#N)Cc3cccc(N4CCCC4)n3)cc2[nH]c1=O (stereo not shown)"
  Readout Kind: "log10 IC50"
  Value Observed: 1.70
- Compound: "CCc1cc2ccc(C(C)(C#N)CCOc3ccnc(SC)n3)cc2[nH]c1=O (stereo not shown)"
  Readout Kind: "log10 IC50"
  Value Observed: 1.90
- Compound: "CCOc1cccc(CC(C)(C#N)c2ccc3cc(CC)c(=O)[nH]c3c2)c1 (stereo not shown)"
  Readout Kind: "log10 IC50"
  Value Observed: 1.70
- Compound: "CCc1cc2ccc(C(C)(C#N)Cc3cccc(Br)n3)cc2[nH]c1=O (stereo not shown)"
  Readout Kind: "log10 IC50"
  Value Observed: 1.80
- Compound: "CCc1cc2ccc(C(C)(C#N)CN(C)CCc3cn(C)c4ccccc34)cc2[nH]c1=O (stereo not shown)"
  Readout Kind: "log10 IC50"
  Value Observed: 1.80
- Compound: "CCc1cc2ccc(C(C)(C#N)Cc3cc(OC)nc(OC)c3)cc2[nH]c1=O (stereo not shown)"
  Readout Kind: "log10 IC50"
  Value Observed: 1.60
- Compound: "CCc1cc2ccc(C(C)(C#N)Cc3cc(F)cc(Cl)c3)cc2[nH]c1=O (stereo not shown)"
  Readout Kind: "log10 IC50"
  Value Observed: 2.90
- Compound: "CCc1cc2ccc(C(C)(C#N)Cc3cccc(OCCC#N)c3)cc2[nH]c1=O (stereo not shown)"
  Readout Kind: "log10 IC50"
  Value Observed: 1.60
- Compound: "CCc1cc2ccc(C(C)(C#N)Cc3cc(C)nc(C#N)c3)cc2[nH]c1=O (stereo not shown)"
  Readout Kind: "log10 IC50"
  Value Observed: 1.80
- Compound: "CCc1cc2ccc(C(C)(C#N)Cc3ccc4c(c3)nnn4C)cc2[nH]c1=O (stereo not shown)"
  Readout Kind: "log10 IC50"
  Value Observed: 2.20
